Source listed as patent US9987272B2.

- Study Target: TYK2 (Homo sapiens, UniProt P29597)
- Sequence (P29597 871-1187): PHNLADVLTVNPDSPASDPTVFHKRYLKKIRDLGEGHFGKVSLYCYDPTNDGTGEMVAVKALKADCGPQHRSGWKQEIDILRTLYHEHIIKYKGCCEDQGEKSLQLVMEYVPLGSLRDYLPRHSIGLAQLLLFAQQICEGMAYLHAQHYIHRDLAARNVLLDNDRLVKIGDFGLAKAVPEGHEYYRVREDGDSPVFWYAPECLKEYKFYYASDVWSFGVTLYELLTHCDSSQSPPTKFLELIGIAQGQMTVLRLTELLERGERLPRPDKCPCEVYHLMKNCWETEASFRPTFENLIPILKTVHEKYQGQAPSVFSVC
Reported Endpoint: Ki (nM)
Give your result in nM as a bare value.

**Q:** Missing value: Ki, TYK2 (Homo sapiens, UniProt P29597), entry CC(=O)Nc1cc2c(-c3ccc(CN4CCN(S(C)(=O)=O)CC4)c(F)c3)cccn2n1 . Fill in?
**A:** 110
